- tested on: glucagon receptor (HEK293 cells co-transfected with the glucagon receptor and a CRE-luciferase gene)
- experimental details: cell-based or functional assay
*1 amine or outer side, *2 acyl side, *3 side chain or, on linkers, in order; H or OH if unused. Where no end group is shown, it is not given here. Side-chain parts run from the residue outwards. [ ]: non-standard residue; d: D form. The star is where a group is joined. 40K‑TE PEG = 40 kDa PEG attached to Cys by thioether; γGlu = O=C(O)[C@H](CCC(=O)[*:2])N[*:1]; Palmitoyl = CCCCCCCCCCCCCCCC(=O)*; Morn = not defined here; Aib = CC(C)(N)C(=O)O
Below, each entry is listed with its recorded EC50 (nM) at glucagon receptor (cAMP-induced luciferase reporter, HEK293).
readout: EC50 (nM) at glucagon receptor (cAMP-induced luciferase reporter, HEK293)

binder="H[Aib]QGTFTSDK([γGlu-γGlu-Palmitoyl])SKYLD[Aib]RAAQDFVQWL[Morn]DTKQ-OH (not fully specified; printed as HaibQGTFTSDK(γGlu-γGlu-C16)SKYLDaibRAAQDFVQWLMornDTKQ-acid; reading uncertain) [peptide of SEQ ID NO: 15]" test_result=0.006
binder="HSQGTFTSDKSKYLDERAAQDFVQWLLDTKX (s at position 2 (lower case, presumably D-Ser); K(γGlu-C16) at position 10 (Lys acylated with C16 via γGlu spacer); C-terminal γGlu; C-terminal amide) [peptide of SEQ ID NO: 14]" test_result=0.003
binder="H[Aib]QGTFTSDYSKYLDERRA[Aib]EFVC(40K‑TE PEG)WLLDTK[γGlu]-NH2 [peptide of SEQ ID NO: 13]" test_result=2.81
binder="H[Aib]QGTFTSDK([γGlu-γGlu-Palmitoyl])SKYLD[Aib]RAAQDFVQWLMDTK[γGlu]-NH2 [peptide of SEQ ID NO: 12]" test_result=0.01
